System: CaCo2 monolayers (tight junctions)
Test: Inhibition of agonist-induced Lucifer Yellow flux through CaCo2 monolayers
Details: inhibition of the increase in Lucifer Yellow permeability induced by SEQ ID NO:70 (FCIGRL); CaCo2 monolayers
No end group written: not given here.
Reported Endpoint: Reduced LY Permeability

Solved entries (count: 4):
Recorded Reduced LY Permeability for VLVQPG [SEQ ID NO: 3] with CaCo2 monolayers (tight junctions), please?
+

CaCo2 monolayers (tight junctions) / Reduced LY Permeability / GVLVQPG [SEQ ID NO: 2] : value?
−

Form: Entry = GGVLVQPG [SEQ ID NO: 1, reference compound] | System = CaCo2 monolayers (tight junctions) | Reduced LY Permeability = ____
+

Request: Reduced LY Permeability, test system CaCo2 monolayers (tight junctions), entry Val-Gln-Pro-Gly (VQPG; Tight junction antagonist) [SEQ ID NO: 5]
+

Lab note: next substance to report on.
Param readout = Reduced LY Permeability; param system = CaCo2 monolayers (tight junctions); param query = Leu-Val-Gln-Pro-Gly (LVQPG; Tight junction antagonist) [SEQ ID NO: 4] ; response: value
+

----------
System: CaCo2 monolayers (tight junctions)
Test: Inhibition of agonist-induced decrease in trans epithelial electric resistance (TEER) of CaCo2 monolayers
Conditions: inhibition of the reduction in TEER induced by SEQ ID NO:70 (FCIGRL); CaCo2 monolayers
No end group written: not given here.
Reported Endpoint: Prevented TEER Reduction

Some solved cases for reference:
Record request: Prevented TEER Reduction value, item Val-Gln-Pro-Gly (VQPG; Tight junction antagonist) [SEQ ID NO: 5]
+

# input substance: Leu-Val-Gln-Pro-Gly (LVQPG; Tight junction antagonist) [SEQ ID NO: 4] ; wanted: its Prevented TEER Reduction
+

Prevented TEER Reduction lookup needed for GVLVQPG [SEQ ID NO: 2] , thanks.
−

Entry VLVQPG [SEQ ID NO: 3] : reported Prevented TEER Reduction = ?
+

Now look at this entry.
Using the record for GGVLVQPG [SEQ ID NO: 1, reference compound] , report its Prevented TEER Reduction.
+
